Each record here notes measured AC50.
Target: Thromboxane A2 receptor (Homo sapiens, UniProt P21731); further: assay procedure not described here
Sequence (P21731 whole entry): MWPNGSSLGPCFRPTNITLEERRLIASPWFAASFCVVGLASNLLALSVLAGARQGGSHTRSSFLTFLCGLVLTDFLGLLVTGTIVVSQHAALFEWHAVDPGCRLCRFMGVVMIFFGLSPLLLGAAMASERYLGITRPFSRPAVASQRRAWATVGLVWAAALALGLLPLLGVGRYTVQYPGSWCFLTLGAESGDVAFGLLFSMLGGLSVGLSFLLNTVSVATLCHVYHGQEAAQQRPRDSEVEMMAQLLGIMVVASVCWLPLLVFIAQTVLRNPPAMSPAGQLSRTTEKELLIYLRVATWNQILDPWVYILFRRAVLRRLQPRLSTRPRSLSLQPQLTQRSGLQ
Format: functional, cell-based

A selection of reference data follows.
1. CCCc1nc2c(C)cc(-c3nc4ccccc4n3C)cc2n1Cc1ccc(-c2ccccc2C(=O)O)cc1: 14.5 µM
2. CCCCC(CC)CN1CN(CC(CC)CCCC)CC(C)(N)C1 (stereo not given) [HEXETIDINE]: > 30 µM
3. Cc1ncc2c(c1O)COC2c1ccc(Cl)cc1 (stereo not given) [CICLETANINE]: > 30 µM
4. N#Cc1ccc(Oc2ccc3c(c2)COB3O)cc1 [CRISABOROLE]: > 30 µM
5. COc1ccc2c(C(=S)N(C)CC(=O)O)cccc2c1C(F)(F)F [TOLRESTAT]: > 30 µM
6. O=C(O)P(=O)(O)O [FOSCARNET]: > 30 µM

Checklist item: AC50 tested on Thromboxane A2 receptor (Homo sapiens, UniProt P21731), entry COc1ccccc1OC1(C)OC(=O)c2ccccc2O1 (stereo not given) [GUAIMESAL] , value?; further: assay procedure not described here
> 30 µM

// fetch Thromboxane A2 receptor (Homo sapiens, UniProt P21731) AC50 for C[Se]CC[C@H](N)C(=O)O [SELENOMETHIONINE]
> 30 µM

Item COC(=O)[C@@H](N)Cc1ccc(O)c(O)c1 [MELEVODOPA] with Thromboxane A2 receptor (Homo sapiens, UniProt P21731) - AC50?
> 30 µM
